SYSTEM: TEAD3 (Homo sapiens)
Sequence (Q99594 whole entry, species assumed): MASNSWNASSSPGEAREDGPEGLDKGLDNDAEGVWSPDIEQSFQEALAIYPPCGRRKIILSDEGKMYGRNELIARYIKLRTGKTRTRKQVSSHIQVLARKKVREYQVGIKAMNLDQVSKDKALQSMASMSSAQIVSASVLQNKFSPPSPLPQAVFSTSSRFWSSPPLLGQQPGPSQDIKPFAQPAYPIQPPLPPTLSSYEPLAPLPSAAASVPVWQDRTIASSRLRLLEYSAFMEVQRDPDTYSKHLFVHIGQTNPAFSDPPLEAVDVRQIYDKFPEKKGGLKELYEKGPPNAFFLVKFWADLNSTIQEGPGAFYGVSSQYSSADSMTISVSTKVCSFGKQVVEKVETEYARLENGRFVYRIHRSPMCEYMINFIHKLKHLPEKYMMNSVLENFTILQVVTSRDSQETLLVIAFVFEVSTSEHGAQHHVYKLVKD
MEASUREMENT_PROTOCOL: Thermal shift assay TEAD3
Assay type: binding
ASSAY_METRIC: TEAD3 ΔTm (°C)
Numeric only. Scale: °C

Task item: Recall and state the measured TEAD3 ΔTm for Cn1cc2cc(Oc3cc(F)c(F)c(F)c3)cc([C@@H]3C[C@H]3C(=O)N3C[C@@H]4C[C@H]3C[C@@H]4O)c2n1 (single isomer, unassigned) .
Reply: 2.3

Task item: State its TEAD3 ΔTm for this molecule: Cn1cc2cc(Oc3ccc(C(F)(F)F)cc3)cc(C3C[C@H]3C(=O)N3C[C@H]4C[C@@H]3C[C@@H]4O)c2n1 (single isomer, unassigned) [Example 103c]
Reply: 9.4

Task item: Please give measured TEAD3 ΔTm of the following entry: CNC(=O)[C@@H]1CC1c1cc(-c2ccc(C(F)(F)F)cc2)cc2c1cnn2C (mixture of isomers) [Example 24]
Reply: 0.3

Task item: Quote TEAD3 ΔTm reported for COCCNC(=O)[C@@H]1C[C@H]1c1cc(-c2ccc(C(F)(F)F)cc2)cc2c1cnn2C (racemic) please.
Reply: 0.1

Task item: Note down TEAD3 ΔTm recorded for CNS(=O)(=O)CCc1cc(N(C)c2ccc(C(F)(F)F)cc2)cc2cn(C)nc12
Reply: 0.1

Task item: Provide one value: measured TEAD3 ΔTm of Cn1cc2cc(O[C@H]3CC[C@@H](C(F)(F)F)CC3)cc([C@H]3C[C@@H]3C(=O)N3CC(O)C3)c2n1 (single isomer, unassigned) [Example 87b]
Reply: 0.0

* * *

Assignment: determine reported TEAD3 ΔTm for the given compounds.
SYSTEM: TEAD3 (Homo sapiens)
MEASUREMENT_PROTOCOL: Thermal shift assay TEAD3
Type: binding
The reply should be a number in °C, with the unit left off.

Task item: // Input: Cn1cc2nc(Oc3ccc(C(F)(F)F)cc3)cc([C@H]3C[C@@H]3C(=O)N3CC(O)C3)c2n1 (single isomer, unassigned) [Example 108b] . Output its TEAD3 ΔTm only.
Reply: 8.8

Task item: Return the recorded TEAD3 ΔTm value; entry: Cn1cc2cc(Oc3ccc(C(F)(F)F)cc3)cc(C3C[C@H]3C(=O)N3CCC[C@H]3C#N)c2n1 (single isomer, unassigned) [Example 73]
Reply: 13.9

Task item: Quick one: give measured TEAD3 ΔTm for Cn1cc2cc(Oc3ccc(C(F)(F)F)cc3)cc([C@@H]3C[C@H]3C(=O)N3CC4CC3CC4O)c2n1 (single isomer, unassigned) [Example 103a]
Reply: 3.0

Task item: // Input: CNS(=O)(=O)[C@@H]1CC1c1cc(Oc2ccc(C(F)(F)F)cc2)cc2cccnc12 (mixture of isomers) [Example 81] . Output its TEAD3 ΔTm only.
Reply: 8.9

Task item: Identify TEAD3 ΔTm associated with the compound Cc1cn2cc(Oc3ccc(C(F)(F)F)cc3)cc([C@H]3C[C@@H]3C(=O)N3CC(O)C3)c2n1 (single isomer, unassigned) [Example 85b]
Reply: 1.8

Task item: Quote TEAD3 ΔTm reported for Cn1cc2cc(Oc3ccc(C(F)(F)F)cn3)cc([C@@H]3C[C@H]3C(=O)N3CC(O)C3)c2n1 (single isomer, unassigned) [Example 88a] please.
Reply: 0.1

* * *

SYSTEM: TEAD1 (Homo sapiens)
Sequence (P28347 whole entry, species assumed): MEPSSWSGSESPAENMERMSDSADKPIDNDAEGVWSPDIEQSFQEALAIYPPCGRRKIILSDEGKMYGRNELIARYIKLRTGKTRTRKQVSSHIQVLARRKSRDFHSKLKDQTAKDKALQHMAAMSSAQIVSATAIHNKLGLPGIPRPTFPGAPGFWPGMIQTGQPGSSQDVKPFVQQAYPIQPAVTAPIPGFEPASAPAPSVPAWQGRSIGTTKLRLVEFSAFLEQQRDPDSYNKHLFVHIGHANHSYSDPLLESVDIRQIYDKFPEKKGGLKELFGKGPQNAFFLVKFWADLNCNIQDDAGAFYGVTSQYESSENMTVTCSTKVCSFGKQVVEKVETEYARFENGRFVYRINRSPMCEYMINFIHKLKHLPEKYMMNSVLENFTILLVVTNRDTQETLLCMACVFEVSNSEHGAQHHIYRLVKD
MEASUREMENT_PROTOCOL: Thermal shift assay TEAD1
Type: binding
# label = rule met if TEAD1 ΔTm >= 8 °C else rule not met

Task item: Check the entry Cn1cc2cc(N3CCC4(CCCC4)CC3)cc(C3C[C@H]3C(=O)N3C[C@H](O)[C@@H](O)C3)c2n1 (single isomer, unassigned) [Example 86] : does TEAD1 ΔTm equal or exceed 8 °C?
Reply: rule not met

Task item: In plain terms: is recorded TEAD1 ΔTm at least 8 °C for Cn1cc2cc(Oc3ccc(C(F)(F)F)cc3)cc(C3C[C@H]3C(=O)N3C4COCC3C4)c2n1 (single isomer, unassigned) [Example 96] ?
Reply: rule met

Task item: Could you verify whether the entry C[C@@H](C#N)NC(=O)[C@@H]1C[C@H]1c1cc(Oc2ccc(C(F)(F)F)cc2)cc2cn(C)nc12 (single isomer, unassigned) [Example 69] shows TEAD1 ΔTm of no less than 8 °C?
Reply: rule met

Task item: Does the reported TEAD1 ΔTm for O=C(O)[C@@H]1C[C@H]1c1cc(Oc2ccc(C(F)(F)F)cc2)cc2c1NCCC2 (racemic) [Example 144] fall at or above the 8 °C mark?
Reply: rule met

Task item: Decide: TEAD1 ΔTm of CC(NC(=O)[C@@H]1CC1c1cc(Oc2ccc(C(F)(F)F)cc2)cc2cn(C)nc12)c1ccccn1 (mixture of isomers) [Example 57] >= 8 °C?
Reply: rule not met

Task item: Form field: TEAD1 ΔTm at least 8 °C? Entry: CNC(=O)[C@@H]1CC1c1cc(OCc2ccc(C(F)(F)F)cc2)cc2c1cnn2C (mixture of isomers) [Example 37]
Reply: rule not met

Task item: I'd appreciate it if you could say whether CNC(=O)[C@@H]1CC1c1cc(Oc2ccc(C(F)(F)F)cc2)cc2cn(C)nc12 (mixture of isomers) [Example 34] has TEAD1 ΔTm at least equal to 8 °C.
Reply: rule met

Task item: Identify whether the reported TEAD1 ΔTm of the following compound is 8 °C or greater: CNC(=O)[C@@H]1CC1c1cc(Oc2ccc(C(F)(F)F)cc2)cc2cn(C3CC3)nc12 (mixture of isomers) [Example 78]
Reply: rule met

Task item: Item C[C@@H](CO)NC(=O)[C@@H]1CC1c1cc(Oc2ccc(C(F)(F)F)cc2)cc2cn(C)nc12 (single isomer, unassigned) [Example 54] with TEAD1 ΔTm of 8 °C or above?
Reply: rule met

Task item: Is TEAD1 ΔTm at least 8 °C? Consider Cn1cc2nc(Oc3ccc(C(F)(F)F)cc3)cc([C@@H]3C[C@H]3C(=O)N3C[C@H]4C[C@@H]3CO4)c2n1 (single isomer, unassigned) [Example 119]
Reply: rule not met

Task item: I'd appreciate it if you could say whether Cn1cc2cc(Oc3ccc(C(F)F)cc3)cc([C@@H]3C[C@H]3C(=O)N3CC(O)C3)c2n1 (single isomer, unassigned) [Example 89a] has TEAD1 ΔTm at least equal to 8 °C.
Reply: rule not met

Task item: Is TEAD1 ΔTm at least 8 °C? Consider CNS(=O)(=O)CCc1cc(-c2ccc(C(F)(F)F)cc2)cc2c1cnn2C [Example 42]
Reply: rule not met
